Reference for the values: ChEMBL document CHEMBL3244277

# protocol_text: Cytotoxicity against chinese hamster V79-4 cells assessed as survival using 1 x 10^5 cells per plate at 10^-4 M after 24 hrs
# Type: cell-based, Cricetulus griseus
# experimental_conditions: read-out: Survival
value_kind: viability at 24 h, 100 µM (%)

compound: O=C1CN([C@H]2C[C@@H]2N2CC(=O)NC(=O)C2)CC(=O)N1 (relative stereo)
value_kind: viability at 24 h, 100 µM
endpoint_result: 50

compound: CC(CN(CC(=O)O)CC(=O)O)N(CC(=O)O)CC(=O)O (stereo not drawn)
value_kind: viability at 24 h, 100 µM
endpoint_result: 85

compound: COC(=O)CN(CC(=O)OC)[C@@H]1C[C@H]1N(CC(=O)OC)CC(=O)OC (relative stereo)
value_kind: viability at 24 h, 100 µM
endpoint_result: 2
